Where these numbers come from: the Immune Epitope Database (IEDB)

target: HLA-A*02:06; assay: IEDB peptide-MHC binding, purified MHC/competitive/radioactivity; filed as Kd, often an IC50 or EC50 that approximates it; bounds were set here for any values at or beyond the usual limits of such assays; conditions: source organism: Dengue virus 1 Nauru/West Pac/1974
pKd: −log10 of the molar value.
resultType: pKd

{"inputSequence": "AMLDVDLHPA", "resultNumber": 8.15}

----------
molecular target: HLA-A*29:02; assay: IEDB peptide-MHC binding, purified MHC/competitive/fluorescence; filed as Kd, often an IC50 or EC50 that approximates it; bounds were set here for any values at or beyond the usual limits of such assays; settings: source organism: Francisella tularensis subsp. tularensis FSC198
pKd: −log10 of the molar value.
resultType: pKd

{"inputSequence": "RSFPEWDYI", "systemName": "HLA-A*29:02", "result": "≤ 4.70"}
